The measured values listed here are drawn from patent US20070055049A1.

- Measured On: HLA-A*0201 (human)
- Protocol Details: competitive inhibition, purified HLA-A2.1
Recorded Endpoint: pIC50
FYI, pIC50 means -log10 of a concentration in mol per litre.

Recorded pIC50 for YMDDVVLGA (modifications not checked) [HBV pol 538 peptide] , please? 6.70
